Experiment Notes: Cmax in mouse at 30 mg/kg, po
Assay type: ADME, organism-based
Design: dose 30 mg/kg, route oral
Measurement Context: in vivo
Measured Attribute: Cmax (ng/mL)
Record the value in ng/mL, omitting the unit from your answer.

Param item = `Cc1nc(Nc2cc(N[C@@H]3CCCC[C@@H]3N)nnc2C(N)=O)ccc1F` ; retrieve measured Cmax.
1560

Try this compound too: `Cc1nc(Nc2cc(N[C@@H]3CCCC[C@@H]3N)nnc2C(N)=O)ccc1Cl`
144

###

Assignment: determine reported solubility for the given compounds.
Experiment Notes: Solubility of the compound by LYSA
Type: physicochemical
Record the value in µg/mL, omitting the unit from your answer.

Param item = `COc1ccc(Nc2cc(N[C@@H]3CCCC[C@@H]3N)nnc2C(N)=O)nc1OC` ; retrieve measured solubility.
522

Try this compound too: `Cc1nc(Nc2cc(N[C@@H]3CCCC[C@@H]3N)nnc2C(N)=O)ccc1Cl`
345

Try this compound too: `Cc1ccc(Nc2cc(N[C@@H]3CCCC[C@@H]3N)nnc2C(N)=O)nc1C`
329

Try this compound too: `NC(=O)c1nnc(N[C@@H]2CCCC[C@@H]2N)cc1Nc1ccc2c(n1)CCC2`
404

Try this compound too: `Cc1cccc(Nc2cc(N[C@@H]3CCCC[C@@H]3N)nnc2C(N)=O)n1`
471

Try this compound too: `Cc1nc(Nc2cc(N[C@@H]3CCCC[C@@H]3N)nnc2C(N)=O)ccc1F`
390

###

Assignment: determine reported half-life for the given molecules.
Experiment Notes: Apparent terminal half life in mouse at 1 mg/kg, iv
Format: ADME, organism-based
Design: dose 1 mg/kg, route intravenous
Measurement Context: in vivo, read-out: betat1/2(app) (converted)
Answer shape: numeric part, then the unit.

Param item = `COc1ccc(Nc2cc(N[C@@H]3CCOC[C@@H]3N)nnc2C(N)=O)nc1C(C)C` ; retrieve measured half-life.
1.96 h

Try this molecule too: `COc1ccc(Nc2cc(NCCN)nnc2C(N)=O)nc1C(C)C`
1.74 h

Try this molecule too: `CCCc1nc(Nc2cc(NCCN)nnc2C(N)=O)ccc1OC`
1.28 h

###

Experiment Notes: Volume of distribution at steady state in mouse at 0.5 mg/kg, iv
Format: ADME, organism-based
Parameters: dose 0.5 mg/kg, route intravenous
Measurement Context: in vivo, read-out: Vdss
Assignment: determine reported Vd for the given molecules.
Record the value in L/kg, omitting the unit from your answer.

Param item = `Cc1nc(Nc2cc(N[C@@H]3CCCC[C@@H]3N)nnc2C(N)=O)ccc1Cl` ; retrieve measured Vd.
2.74

Try this molecule too: `Cc1nc(Nc2cc(N[C@@H]3CCCC[C@@H]3N)nnc2C(N)=O)ccc1F`
1.44

###

Assignment: determine reported CLhep predicted for the given compounds.
Experiment Notes: Metabolic stability in human liver microsomes
Assay type: ADME
Measurement Context: read-out: Stability
Record the value in mL/min/kg, omitting the unit from your answer.

Param item = `COc1ccc(Nc2cc(N[C@@H]3CCCC[C@@H]3N)nnc2C(N)=O)nc1OC` ; retrieve measured CLhep predicted.
2

Try this compound too: `Cc1cccc(Nc2cc(N[C@@H]3CCCC[C@@H]3N)nnc2C(N)=O)n1`
2

Try this compound too: `Cc1nc(Nc2cc(N[C@@H]3CCCC[C@@H]3N)nnc2C(N)=O)ccc1Cl`
7

Try this compound too: `NC(=O)c1nnc(N[C@@H]2CCCC[C@@H]2N)cc1Nc1ccc2c(n1)CCC2`
2

Try this compound too: `Cc1nc(Nc2cc(N[C@@H]3CCCC[C@@H]3N)nnc2C(N)=O)ccc1F`
3

Try this compound too: `Cc1ccc(Nc2cc(N[C@@H]3CCCC[C@@H]3N)nnc2C(N)=O)nc1C`
1

Every entry's value here was drawn from ChEMBL document CHEMBL3232975.
